protocol: Pharmacokinetic study in mice
Type: in vivo
cond: male mice, i.v. (2 mg/kg), plasma
measurement-type: AUC(0-t) (ng·h/mL)

Cn1c(=O)n(C2CCC(=O)NC2=O)c2cccc(C#CCO[C@H]3CC[C@H](CN4CCC5(CC4)Cc4cc(NC(=O)c6cnn7cccnc67)c(N6CCC(CO)CC6)cc4O5)CC3)c21 (relative stereo) [Compound 34] : 7155
Cn1c(=O)n(C2CCC(=O)NC2=O)c2cccc(C#CCO[C@H]3CC[C@H](CN4CCC5(CC4)Cc4cc(NC(=O)c6cnn7cc(F)cnc67)c(N6CCC(CO)CC6)cc4O5)CC3)c21 (some centres unmarked) [Compound 38] : 11671
Cn1c(=O)n(C2CCC(=O)NC2=O)c2cccc(C#CCO[C@H]3CC[C@H](CN4CCC5(CC4)Cc4cc(NC(=O)c6cnn7cccnc67)c(N6CCC(O)CC6)cc4O5)CC3)c21 (some centres unmarked) [Compound 46] : 14148

1: Cn1c(=O)n(C2CCC(=O)NC2=O)c2cccc(C#CCO[C@H]3CC[C@H](CN4CCC5(CC4)Cc4cc(NC(=O)c6coc7cccnc67)c(N6CCC(CO)CC6)cc4O5)CC3)c21 (some centres unmarked) [Compound 35]
2: Cn1c(=O)n(C2CCC(=O)NC2=O)c2cccc(C#CCO[C@H]3CC[C@H](CN4CCC5(CC4)Cc4cc(NC(=O)c6cnc7cccnn67)c(N6CCC(CO)CC6)cc4O5)CC3)c21 (some centres unmarked) [Compound 45]
Task: Exercise: compare 1 and 2 ; which one has the greater AUC(0-t)? Select an item and report its label.
Output: 1
(1: 10556 ng·h/mL, 2: 3192 ng·h/mL)

====

protocol: Pharmacokinetic study in mice
Assay type: in vivo
cond: mouse, po; male mice, p.o. (10 mg/kg), plasma; read-out: AUC0-t
Each entry below lists one item and its recorded AUC(0-t) value.
Give the value in ng·h/mL but do not write ng·h/mL after it.

Examples from the recorded data:
Cn1c(=O)n(C2CCC(=O)NC2=O)c2cccc(N3CCN(C(=O)CN4CCC5(CC4)Cc4cc(NC(=O)c6cnn7cccnc67)c(N6CCC(CO)CC6)cc4O5)CC3)c21 (centres unmarked) : 6680
Cn1c(=O)n(C2CCC(=O)NC2=O)c2cccc(CN3CCC(CCN4CCC5(CC4)Oc4cc(NC(=O)c6cnn7cccnc67)c(N6CCC(CO)CC6)cc4O5)CC3)c21 (centres unmarked) : 23200
Cn1c(=O)n(C2CCC(=O)NC2=O)c2cccc(N3CCN(CCN4CCC5(CC4)Cc4cc(NC(=O)c6cnn7cccnc67)c(N6CCC(CO)CC6)cc4O5)CC3)c21 (centres unmarked) : 11100

Task: Using the record for Cn1c(=O)n(C2CCC(=O)NC2=O)c2cccc(C#CCO[C@H]3CC[C@@H](CN4CCC5(CC4)Cc4cc(NC(=O)c6cnn7cccnc67)c(N6CCC(CO)CC6)cc4O5)CC3)c21 (relative stereo) , report its AUC(0-t).
Output: 10000

Task: Now give it for Cn1nc(N2CCC(=O)NC2=O)c2cc(F)c(N3CCC(O)(CC(=O)N4CCC5(CC4)Cc4cc(NC(=O)c6cnn7cccnc67)c(N6CCC(CO)CC6)cc4O5)CC3)cc21 too.
Output: 38200

====

study-target: UniProt:Q9NWZ3
Sequence (Q9NWZ3 whole entry): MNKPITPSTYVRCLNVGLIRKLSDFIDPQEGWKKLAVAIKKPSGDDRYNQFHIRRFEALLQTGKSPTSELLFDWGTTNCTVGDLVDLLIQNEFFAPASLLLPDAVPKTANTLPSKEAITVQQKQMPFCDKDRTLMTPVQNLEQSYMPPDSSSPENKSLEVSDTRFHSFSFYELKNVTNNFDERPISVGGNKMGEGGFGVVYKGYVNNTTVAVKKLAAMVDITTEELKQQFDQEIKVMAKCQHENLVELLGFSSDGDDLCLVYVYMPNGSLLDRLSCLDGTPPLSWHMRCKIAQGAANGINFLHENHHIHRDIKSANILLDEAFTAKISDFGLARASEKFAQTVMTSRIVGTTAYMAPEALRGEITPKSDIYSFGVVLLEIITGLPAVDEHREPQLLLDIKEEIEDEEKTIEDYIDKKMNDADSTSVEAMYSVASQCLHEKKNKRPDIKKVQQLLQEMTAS
protocol: IRAK4 Degradation Assay in THP-1 Cells (Western Blot)
Format: cell-based
Design: endogenous in cells; host or cells: THP-1 cells
cond: THP-1 cells, 24 hours, 0.0128 to 1000 nM, IRAK4 protein level by Western Blot; read-out: DC50
measurement-type: DC50 (nM)
Give the value in nM but do not write nM after it.

Examples from the recorded data:
Cn1c(=O)n(C2CCC(=O)NC2=O)c2cccc(N3CCC(O)(CC(=O)N4CCC5(CC4)Cc4cc(NC(=O)c6cnn7cccnc67)c(N6CCC(CO)CC6)cc4O5)CC3)c21 (stereo not shown) : 1.02
Cn1c(=O)n(C2CCC(=O)NC2=O)c2cccc(CN3CCC(CCN4CCC5(CC4)Cc4cc(NC(=O)c6cnn7cccnc67)c(N6CCC(CO)CC6)cc4O5)CC3)c21 (stereo not shown) : 1.09
O=C1CCC(N2Cc3cc(N4CCC(CN5CCC6(CC5)Cc5cc(NC(=O)c7cnn8cccnc78)c(N7CCC(CO)CC7)cc5O6)CC4)ccc3C2=O)C(=O)N1 (single isomer, unassigned) [Example 84] : 1.13

Then there is this molecule:
Task: Using the record for Cn1c(=O)n(C2CCC(=O)NC2=O)c2cccc(C#CCO[C@H]3CC[C@H](C(=O)N4CCC5(CC4)Cc4cc(NC(=O)c6cnn7cccnc67)c(N6CCC(CO)CC6)cc4O5)CC3)c21 (relative stereo) , report its DC50.
Output: 2.78
